# measured.on: DOR (Mus musculus)
# Construct: endogenous in cells; host or cells: NG108-15 neuroblastoma x glioma cells
# Sequence (P32300 whole entry): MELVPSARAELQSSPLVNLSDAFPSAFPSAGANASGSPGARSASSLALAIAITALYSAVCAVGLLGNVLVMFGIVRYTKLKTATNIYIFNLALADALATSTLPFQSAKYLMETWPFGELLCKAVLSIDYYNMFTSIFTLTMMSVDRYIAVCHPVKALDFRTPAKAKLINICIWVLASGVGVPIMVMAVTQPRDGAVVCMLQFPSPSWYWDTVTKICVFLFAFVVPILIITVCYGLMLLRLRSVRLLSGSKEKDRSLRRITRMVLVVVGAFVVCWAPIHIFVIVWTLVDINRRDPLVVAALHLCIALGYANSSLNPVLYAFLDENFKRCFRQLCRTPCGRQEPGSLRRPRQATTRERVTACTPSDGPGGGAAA
# test.details: [35S]GTP-γ-S binding assay, NG108-15 cells
# Format: biochemical
# test.context: stimulation of [35S]GTP-γ-S binding; no stim = no stimulation
recorded.endpoint: agonist activity DOR EC50

{"molecule": "O=C(Cc1ccccc1)OC12Cc3cc(-c4ccc(Cl)cc4)cnc3C3Oc4c(O)ccc5c4C31CCN(CC1CC1)C2C5 (stereo not shown) [Compound 18b]", "recorded.endpoint": "agonist activity DOR EC50", "observed.value": "no stim"}
{"molecule": "Oc1ccc2c3c1OC1c4ncc(-c5ccc(Cl)cc5)cc4CC4(OCc5ccccc5)C(C2)N(CC2CC2)CCC314 (stereo not shown) [Compound 17b]", "recorded.endpoint": "agonist activity DOR EC50", "observed.value": "no stim"}
{"molecule": "Oc1ccc2c3c1OC1c4ncc(-c5ccc(Cl)cc5)cc4CC4(OCCCc5ccccc5)C(C2)N(CC2CC2)CCC314 (stereo not shown) [Compound 17d]", "recorded.endpoint": "agonist activity DOR EC50", "observed.value": "no stim"}
{"molecule": "O=C(OC12Cc3cc(-c4ccc(Cl)cc4)cnc3C3Oc4c(O)ccc5c4C31CCN(CC1CC1)C2C5)c1ccccc1 (stereo not shown) [Compound 18a]", "recorded.endpoint": "agonist activity DOR EC50", "observed.value": "no stim"}
{"molecule": "Oc1ccc2c3c1OC1c4ncc(-c5ccc(Cl)cc5)cc4CC4(OCC=Cc5ccccc5)C(C2)N(CC2CC2)CCC314 (stereo not shown) [Compound 17c]", "recorded.endpoint": "agonist activity DOR EC50", "observed.value": "no stim"}

Which agonist activity DOR EC50 is reported for this molecule? O=C(CCc1ccccc1)O[C@@]12Cc3cc(-c4ccc(Cl)cc4)cnc3[C@@H]3Oc4c(O)ccc5c4[C@@]31CCN(CC1CC1)[C@@H]2C5 [Compound 18c]
no stim

Which agonist activity DOR EC50 is reported for this molecule? CN1CCC23c4c5ccc(O)c4OC2c2ncc(-c4ccc(Cl)cc4)cc2CC3(OC(=O)c2ccccc2)C1C5 (stereo not shown) [Compound 18d]
no stim

Which agonist activity DOR EC50 is reported for this molecule? COC12Cc3cc(-c4ccc(Cl)cc4)cnc3C3Oc4c(O)ccc5c4C31CCN(C)C2C5 (stereo not shown) [Compound 17e]
no stim

Which agonist activity DOR EC50 is reported for this molecule? Oc1ccc2c3c1OC1c4ncc(-c5ccc(Cl)cc5)cc4C=C4C(C2)N(CC2CC2)CCC431 (stereo not shown)
no stim
